Please provide measured pKd for the entries that follow.
targetUnderTest: HLA-B*15:42
experiment: IEDB peptide-MHC binding, purified MHC/competitive/fluorescence; filed as Kd, often an IC50 or EC50 that approximates it; bounds were set here for any values at or beyond the usual limits of such assays
measurementConditions: source organism: human gammaherpesvirus 4
pKd: −log10 of the molar value.

## Task Please tell me: pKd of SQAAFGLPI , system HLA-B*15:42?
## Result ≤ 5.30

## Task Moving on to the next sequence: RRLHRLLLM
## Result ≤ 5.30

----------
targetUnderTest: HLA-A*69:01
experiment: IEDB peptide-MHC binding, purified MHC/direct/fluorescence; filed as Kd, often an IC50 or EC50 that approximates it; bounds were set here for any values at or beyond the usual limits of such assays
measurementConditions: source organism: Homo sapiens
measuredQuantity: pKd
API: returns pKd as number; meaning -log10 of concentration in mol/L.

## Task So what's the measured pKd for this one? APTGDLPRA
## Result 5.17

----------
targetUnderTest: HLA-A*02:01
experiment: IEDB peptide-MHC binding, purified MHC/competitive/fluorescence; bounds were set here for any values at or beyond the usual limits of such assays
measurementConditions: source organism: Zaire ebolavirus
measuredQuantity: IC50 (µM)
Express it in µM; write the number only.

## Task So what's the measured IC50 for this one? TLDGQQFYW
## Result 2.22

## Task Moving on to the next sequence: SLFLPKLVV
## Result 0.2

## Task Moving on to the next sequence: SVGHMMVIF
## Result 18.6

## Task Moving on to the next sequence: KLGLITNTI
## Result 1.92

## Task Moving on to the next sequence: FTPQFLLQL
## Result 0.292

## Task Moving on to the next sequence: GVTGILQLP
## Result 63.5

## Task Moving on to the next sequence: HILGPDCCI
## Result 66.4

## Task Moving on to the next sequence: KLTEAITAA
## Result 2.05

## Task Moving on to the next sequence: FLLMLCLHH
## Result 12.2

## Task Moving on to the next sequence: MLTPINEEA
## Result 0.78

## Task Moving on to the next sequence: AWIPYFGPA
## Result 20

----------
targetUnderTest: HLA-A*29:02
experiment: IEDB peptide-MHC binding, purified MHC/competitive/radioactivity; filed as Kd, often an IC50 or EC50 that approximates it; bounds were set here for any values at or beyond the usual limits of such assays
measurementConditions: source organism: Homo sapiens
measuredQuantity: pKd
API: returns pKd as number; meaning -log10 of concentration in mol/L.

## Task So what's the measured pKd for this one? SIRDGVRAY
## Result 5.54

----------
targetUnderTest: HLA-A*01:01
experiment: IEDB peptide-MHC binding, purified MHC/competitive/radioactivity; filed as Kd, often an IC50 or EC50 that approximates it; bounds were set here for any values at or beyond the usual limits of such assays
measurementConditions: source organism: Mammarenavirus machupoense
measuredQuantity: Kd (µM)
Express it in µM; write the number only.

## Task So what's the measured Kd for this one? LSSSEPHCA
## Result 4.19

----------
targetUnderTest: HLA-B*83:01
experiment: IEDB peptide-MHC binding, purified MHC/competitive/fluorescence; filed as Kd, often an IC50 or EC50 that approximates it; bounds were set here for any values at or beyond the usual limits of such assays
measurementConditions: source organism: Human herpesvirus 4 strain B95-8
measuredQuantity: Kd

## Task So what's the measured Kd for this one? RRRRRRAAL
## Result ≥ 5 µM

----------
targetUnderTest: HLA-B*08:02
experiment: IEDB peptide-MHC binding, purified MHC/direct/fluorescence; filed as Kd, often an IC50 or EC50 that approximates it; bounds were set here for any values at or beyond the usual limits of such assays
measurementConditions: source organism: Listeria monocytogenes serotype 4b str. H7858
measuredQuantity: pKd
API: returns pKd as number; meaning -log10 of concentration in mol/L.

## Task So what's the measured pKd for this one? HLKRRKEPL
## Result 6.34

----------
targetUnderTest: HLA-A*02:01
experiment: IEDB peptide-MHC binding, purified MHC/direct/fluorescence; filed as Kd, often an IC50 or EC50 that approximates it; bounds were set here for any values at or beyond the usual limits of such assays
measurementConditions: source organism: Cryptosporidium parvum Iowa II
measuredQuantity: Kd

## Task So what's the measured Kd for this one? LPWFLDTTI
## Result ≥ 20 µM

----------
targetUnderTest: HLA-B*58:01
experiment: IEDB peptide-MHC binding, purified MHC/direct/fluorescence; filed as Kd, often an IC50 or EC50 that approximates it; bounds were set here for any values at or beyond the usual limits of such assays
measurementConditions: source organism: Vibrio vulnificus
measuredQuantity: Kd

## Task So what's the measured Kd for this one? LAFSTRFSF
## Result 144 nM

## Task Moving on to the next sequence: GLKELGDWV
## Result ≥ 20000 nM

----------
targetUnderTest: HLA-A*26:01
experiment: IEDB peptide-MHC binding, purified MHC/direct/fluorescence; filed as Kd, often an IC50 or EC50 that approximates it; bounds were set here for any values at or beyond the usual limits of such assays
measurementConditions: source organism: Francisella tularensis subsp. tularensis FSC033
pKd: −log10 of the molar value.
measuredQuantity: pKd

## Task So what's the measured pKd for this one? EFKRRLKDL
## Result ≤ 4.70

----------
targetUnderTest: HLA-B*58:01
experiment: IEDB peptide-MHC binding, purified MHC/direct/fluorescence; filed as Kd, often an IC50 or EC50 that approximates it; bounds were set here for any values at or beyond the usual limits of such assays
measurementConditions: source organism: Escherichia coli O157:H7
pKd: −log10 of the molar value.
measuredQuantity: pKd

## Task Please tell me: pKd of HEVHAVWPG , system HLA-B*58:01?
## Result ≤ 4.70

## Task Moving on to the next sequence: MLKLRQARL
## Result ≤ 4.70

----------
targetUnderTest: HLA-B*40:01
experiment: IEDB peptide-MHC binding, purified MHC/competitive/radioactivity; filed as Kd, often an IC50 or EC50 that approximates it; bounds were set here for any values at or beyond the usual limits of such assays
measurementConditions: source organism: Mammarenavirus lassaense
pKd: −log10 of the molar value.
measuredQuantity: pKd

## Task So what's the measured pKd for this one? SDLDMLTQS
## Result ≤ 4.61

----------
targetUnderTest: HLA-A*02:19
experiment: IEDB peptide-MHC binding, purified MHC/competitive/fluorescence; filed as Kd, often an IC50 or EC50 that approximates it; bounds were set here for any values at or beyond the usual limits of such assays
measurementConditions: source organism: Plasmodium yoelii yoelii
pKd: −log10 of the molar value.
measuredQuantity: pKd

## Task So what's the measured pKd for this one? KPPRGVLLY
## Result ≤ 4.70

----------
targetUnderTest: HLA-B*08:01
experiment: IEDB peptide-MHC binding, purified MHC/direct/fluorescence; filed as Kd, often an IC50 or EC50 that approximates it; bounds were set here for any values at or beyond the usual limits of such assays
measurementConditions: source organism: Campylobacter jejuni
measuredQuantity: Kd

## Task So what's the measured Kd for this one? VSIRGSHHK
## Result ≥ 20 µM

----------
targetUnderTest: HLA-B*53:01
experiment: IEDB peptide-MHC binding, purified MHC/competitive/radioactivity; filed as Kd, often an IC50 or EC50 that approximates it; bounds were set here for any values at or beyond the usual limits of such assays
measurementConditions: source organism: Mammarenavirus machupoense
measuredQuantity: pKd
API: returns pKd as number; meaning -log10 of concentration in mol/L.

## Task So what's the measured pKd for this one? LPTSITVPV
## Result 7.14

----------
targetUnderTest: HLA-A*02:12
experiment: IEDB peptide-MHC binding, purified MHC/competitive/fluorescence; filed as Kd, often an IC50 or EC50 that approximates it; bounds were set here for any values at or beyond the usual limits of such assays
measurementConditions: source organism: Entamoeba histolytica HM-1:IMSS
measuredQuantity: Kd

## Task So what's the measured Kd for this one? RSLVCLAPK
## Result ≥ 20 µM

----------
targetUnderTest: HLA-B*27:05
experiment: IEDB peptide-MHC binding, purified MHC/direct/fluorescence; filed as Kd, often an IC50 or EC50 that approximates it; bounds were set here for any values at or beyond the usual limits of such assays
measurementConditions: source organism: Influenza A virus (A/chicken/Hunan/fg/2004(H5N1))
pKd: −log10 of the molar value.
measuredQuantity: pKd

## Task So what's the measured pKd for this one? YSHGTGTGY
## Result ≤ 4.70

----------
targetUnderTest: HLA-B*07:02
experiment: IEDB peptide-MHC binding, purified MHC/competitive/fluorescence; filed as Kd, often an IC50 or EC50 that approximates it; bounds were set here for any values at or beyond the usual limits of such assays
measurementConditions: source organism: Vaccinia virus WR
measuredQuantity: Kd

## Task So what's the measured Kd for this one? IHIPGDTLF
## Result ≥ 5 µM
